Test system: SNU484
Assay: Cell viability drug screen, 12-point dose-response AUC
Assay type: cell-based, human
Settings: SNU484 cells; 72 hours; 12-point dose-response
Consider the cut-off -0.5. If the recorded area under the viability curve (AUC), normalized is strictly smaller, the label is 1; if not, the label is 0.

Problem: Find out if reported area under the viability curve (AUC), normalized for `CC(/C=C/C(=O)NO)=C\[C@@H](C)C(=O)c1ccc(N(C)C)cc1` is less than -0.5
Result: 0

Problem: Find out if reported area under the viability curve (AUC), normalized for `CC(C)C[C@H](NC(=O)CNC(=O)c1cc(Cl)ccc1Cl)B(O)O` is less than -0.5
Result: 0

Problem: Find out if reported area under the viability curve (AUC), normalized for `COC(=O)Nc1nc2ccc(Sc3ccccc3)cc2[nH]1` is less than -0.5
Result: 0

Problem: Find out if reported area under the viability curve (AUC), normalized for `Nc1cc(C(F)(F)F)c(-c2cc(N3CCOCC3)nc(N3CCOCC3)n2)cn1` is less than -0.5
Result: 0

Problem: Find out if reported area under the viability curve (AUC), normalized for `C#Cc1cccc(Nc2ncnc3cc(OC)c(OCCCCCCC(=O)NO)cc23)c1` is less than -0.5
Result: 0

Problem: Find out if reported area under the viability curve (AUC), normalized for `CN(C)c1ccc(C(=C2C=CC(=[N+](C)C)C=C2)c2ccc(N(C)C)cc2)cc1` is less than -0.5
Result: 1

Problem: Find out if reported area under the viability curve (AUC), normalized for `CC(C)C[C@H](NC(=O)[C@H](Cc1ccccc1)NC(=O)c1cnccn1)B(O)O` is less than -0.5
Result: 1

---

Tested on: SNU1967
Test: Cell viability drug screen, 12-point dose-response AUC
Format: cell-based, human
Details: SNU1967 cells; 72 hours; 12-point dose-response
Kindly supply the reported area under the viability curve (AUC), normalized values for the records listed here.
Keep it simple and answer with nothing but the number.

Problem: Tell me reported area under the viability curve (AUC), normalized for `Cc1cnc(NC(=O)Nc2cc(Br)c(C)cc2OC[C@@H]2CNCCO2)cn1` , tested with SNU1967.
Result: −0.9616

Problem: Tell me reported area under the viability curve (AUC), normalized for `Cc1ccc(C(=O)N(CCCN)[C@@H](c2oc3cc(Cl)ccc3c(=O)c2Cc2ccccc2)C(C)C)cc1` , tested with SNU1967.
Result: 0.8572

Problem: Tell me reported area under the viability curve (AUC), normalized for `COc1ncc(-c2ccc3nccc(-c4ccnnc4)c3c2)cc1NS(=O)(=O)c1ccc(F)cc1F` , tested with SNU1967.
Result: 1.044

Problem: Tell me reported area under the viability curve (AUC), normalized for `CC(/C=C/C(=O)NO)=C\[C@@H](C)C(=O)c1ccc(N(C)C)cc1` , tested with SNU1967.
Result: −1.472

Problem: Tell me reported area under the viability curve (AUC), normalized for `Nc1ccc(-c2ccc3ncc4ccc(=O)n(-c5cccc(C(F)(F)F)c5)c4c3c2)cn1` , tested with SNU1967.
Result: −0.557

Problem: Tell me reported area under the viability curve (AUC), normalized for `CN(C)c1ccc(C(=C2C=CC(=[N+](C)C)C=C2)c2ccc(N(C)C)cc2)cc1` , tested with SNU1967.
Result: 0.3458

Problem: Tell me reported area under the viability curve (AUC), normalized for CC(C)[C@]12O[C@H]1[C@@H]1O[C@]13[C@]1(O[C@H]1C[C@H]1C4=C(CC[C@@]13C)C(=O)OC4)[C@@H]2O [Triptolide] , tested with SNU1967.
Result: −0.4902

---

Test system: SNU638
Assay: Cell viability drug screen, 12-point dose-response AUC
Assay type: cell-based, human
Conditions: SNU638 cells; 72 hours
readout-name: Average Area Under the Viability Curve (AUC), AUC norm value

Problem: Entry `CC(C)n1nc(-c2ccc3oc(N)nc3c2)c2c(N)ncnc21` has what Average Area Under the Viability Curve (AUC), AUC norm value?
Result: 0.2387

Problem: Entry `Cn1c(=O)n(-c2ccc(C(C)(C)C#N)cc2)c2c3cc(-c4cnc5ccccc5c4)ccc3ncc21` has what Average Area Under the Viability Curve (AUC), AUC norm value?
Result: 0.8979

Problem: Entry `CC[C@@H]1C(=O)N(C)c2cnc(Nc3ccc(C(=O)N[C@H]4CC[C@H](N5CCN(CC6CC6)CC5)CC4)cc3OC)nc2N1C(C)C` has what Average Area Under the Viability Curve (AUC), AUC norm value?
Result: 0.3626

Problem: Entry CC(C)(C)c1ccc(C(O)CCCN2CCC(C(O)(c3ccccc3)c3ccccc3)CC2)cc1 (stereo not drawn) has what Average Area Under the Viability Curve (AUC), AUC norm value?
Result: −0.8091

Problem: Entry `OC1(c2ccc(Cl)c(C(F)(F)F)c2)CCN(CCCC(c2ccc(F)cc2)c2ccc(F)cc2)CC1` has what Average Area Under the Viability Curve (AUC), AUC norm value?
Result: −1.32

Problem: Entry `COc1cccc2c1C(=O)c1c(O)c3c(c(O)c1C2=O)C[C@@](O)(C(=O)CO)C[C@@H]3O[C@H]1C[C@H](N)[C@H](O)[C@H](C)O1` has what Average Area Under the Viability Curve (AUC), AUC norm value?
Result: −0.3342

---

Kindly supply the reported Average Area Under the Viability Curve (AUC), AUC norm value values for the records listed here.
System: NCC19
Experiment: Cell viability drug screen, 12-point dose-response AUC
Type: cell-based, human
Details: NCC19 cells; 72 hours
Keep it simple and answer with nothing but the number.

Problem: Entry CN(C)Cc1c(C(=O)NCCOc2ccc(C(=O)NO)cc2)oc2ccccc12 [PCI-24781] has what Average Area Under the Viability Curve (AUC), AUC norm value?
Result: 0.3282

Problem: Entry Nc1ccn([C@@H]2O[C@H](CO)[C@@H](O)C2(F)F)c(=O)n1 [Gemcitabine (Gemzar), Gemcitabine] has what Average Area Under the Viability Curve (AUC), AUC norm value?
Result: 1.697

Problem: Entry O=C(CCCCCCC(=O)Nc1ccccc1)NO [Vorinostat (SAHA), Vorinostat] has what Average Area Under the Viability Curve (AUC), AUC norm value?
Result: 0.2993

Problem: Entry Cc1ccc(S(=O)(=O)/C=C/C#N)cc1 [BAY 11-7082 (BAY 11-7821), BAY 11-7082] has what Average Area Under the Viability Curve (AUC), AUC norm value?
Result: −0.07527

---

Tested on: NCC19
Test: Cell viability drug screen, 12-point dose-response AUC
Format: cell-based, human
Details: NCC19 cells; 72 hours
Where a name gives a salt, the structure may show the parent alone.
Parameter threshold = 0.9. Response is label 1 when Average Area Under the Viability Curve (AUC), AUC norm value meets or exceeds it, else label 0.

Problem: Say whether Cc1ccc(C(=O)N(CCCN)[C@@H](c2nc3cc(Cl)ccc3c(=O)n2Cc2ccccc2)C(C)C)cc1 [Ispinesib (SB-715992), Ispinesib] shows Average Area Under the Viability Curve (AUC), AUC norm value of 0.9 or more.
Result: label 1

Problem: Say whether C/C=C(\C)C(=O)N[C@@H](c1ccccc1)[C@@H](O)C(=O)O[C@H]1C[C@@]2(O)[C@@H](OC(=O)c3ccccc3)[C@@H]3[C@]4(OC(C)=O)CO[C@@H]4C[C@H](O)[C@@]3(C)C(=O)[C@H](OC(C)=O)C(=C1C)C2(C)C [Cephalomannine] shows Average Area Under the Viability Curve (AUC), AUC norm value of 0.9 or more.
Result: label 1

Problem: Say whether OC1(c2ccc(Cl)c(C(F)(F)F)c2)CCN(CCCC(c2ccc(F)cc2)c2ccc(F)cc2)CC1 [Penfluridol] shows Average Area Under the Viability Curve (AUC), AUC norm value of 0.9 or more.
Result: label 0

Problem: Say whether CC[C@@]1(O)C(=O)OCc2c1cc1n(c2=O)Cc2cc3c(CN(C)C)c(O)ccc3nc2-1 [Topotecan HCI, Topotecan HCl] shows Average Area Under the Viability Curve (AUC), AUC norm value of 0.9 or more.
Result: label 1

---

Tested on: SNU638
Assay: Cell viability drug screen, 12-point dose-response AUC
Assay type: cell-based, human
Details: SNU638 cells; 72 hours
readout-name: Average Area Under the Viability Curve (AUC), AUC norm value

Problem: Tell me reported Average Area Under the Viability Curve (AUC), AUC norm value for CCCCCCCCCCCCCCCC[n+]1ccccc1 [Cetylpyridinium Chloride] , tested with SNU638.
Result: −0.3142

Problem: Tell me reported Average Area Under the Viability Curve (AUC), AUC norm value for `C/C=C(\C)C(=O)N[C@@H](c1ccccc1)[C@@H](O)C(=O)O[C@H]1C[C@@]2(O)[C@@H](OC(=O)c3ccccc3)[C@@H]3[C@]4(OC(C)=O)CO[C@@H]4C[C@H](O)[C@@]3(C)C(=O)[C@H](OC(C)=O)C(=C1C)C2(C)C` , tested with SNU638.
Result: −0.03958

Problem: Tell me reported Average Area Under the Viability Curve (AUC), AUC norm value for `CC(C)C[C@H](NC(=O)[C@H](CCc1ccccc1)NC(=O)CN1CCOCC1)C(=O)N[C@@H](Cc1ccccc1)C(=O)N[C@@H](CC(C)C)C(=O)[C@@]1(C)CO1` , tested with SNU638.
Result: 0.1464
